Please go through the items and note down their F.
# Method: Mouse pharmacokinetic study
# Assay type: in vivo
# Condition Info: Balb/c mouse (female), 10 mg/kg po vs 3 mg/kg iv

Lookup: So what's the measured F for this one? `C#Cc1c(F)ccc2cc(N)cc(-c3nc4c5c(nc(OC[C@@]67CCCN6C[C@H](F)C7)nc5c3F)N3CCCOC[C@H]3CO4)c12`
Found: 17.2%

Lookup: Same question for C#Cc1c(F)ccc2cc(N)cc(-c3nc4c5c(nc(OC[C@@]67CCCN6C[C@H](F)C7)nc5c3F)N3[C@@H](COCC[C@@H]3C)CO4)c12 [Compound 38A] please.
Found: 39.1%

Lookup: Same question for N#Cc1c(N)sc2c(F)ccc(-c3c(Cl)c4c5c(nc(OCC67CCCN6CC(F)C7)nc5c3F)N3CCCOCC3CO4)c12 (single isomer, unassigned) [Compound 66B] please.
Found: 10.8%

Lookup: Same question for N#Cc1c(N)sc2c(F)ccc(-c3c(F)c4c5c(nc(OC[C@@]67CCCN6C[C@H](F)C7)nc5c3F)N3CCCOC[C@H]3CO4)c12 (single isomer, unassigned) [Compound 163B] please.
Found: 25.3%

----------
# Target Desc: GDP-KRAS G12D (Homo sapiens, UniProt P01116, G12D)
# Sequence (P01116 1-169 isoform P01116-2 G12D): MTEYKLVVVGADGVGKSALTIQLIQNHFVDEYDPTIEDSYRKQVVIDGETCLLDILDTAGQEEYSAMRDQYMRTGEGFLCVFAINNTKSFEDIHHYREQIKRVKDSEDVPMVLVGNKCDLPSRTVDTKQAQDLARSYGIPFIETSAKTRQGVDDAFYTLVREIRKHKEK
# Method: biochemical
pIC50: −log10 of the molar value.
# binarize pIC50: threshold 8 inclusive, high side True, low side False

Lookup: Does pIC50 meet or surpass 8 for C#Cc1c(F)ccc2cc(N)cc(-c3nc4c5c(nc(OC[C@@]67CCCN6C[C@H](F)C7)nc5c3F)N3CCCOCC3N4C3CC3)c12 (stereo partly drawn) [Compound 68] ?
Found: True

Lookup: Same question for C#Cc1c(F)ccc2cc(N)cc(-c3nc4c5c(nc(OC[C@@]67CCCN6C[C@H](F)C7)nc5c3F)N3CCCC3N4C)c12 (stereo partly drawn) [Compound 153] please.
Found: False

Lookup: Same question for C#Cc1c(F)ccc2cc(N)cc(-c3nc4c5c(nc(OC[C@@]67CCCN6C[C@H](F)C7)nc5c3F)N3CCC=CC[C@H]3C4=C)c12 [Compound 67] please.
Found: True

----------
# Target Desc: GppNp-KRAS G12D (Homo sapiens, UniProt P01116, G12D)
# Sequence (P01116 1-169 isoform P01116-2 G12D): as above
# Method: biochemical
Please go through the items and note down their IC50.
Response body: numeric value in nM, unit text excluded.

Lookup: So what's the measured IC50 for this one? C#Cc1c(F)ccc2cc(N)cc(-c3nc4c5c(nc(OC[C@@]67CCCN6C[C@H](F)C7)nc5c3F)N3CCCC(O)CC3N4C)c12 (some centres unmarked)
Found: 882

Lookup: Same question for C#Cc1c(F)ccc2cc(N)cc(-c3nc4c5c(nc(OC[C@@]67CCCN6C[C@H](F)C7)nc5c3F)N3CC(C)COC[C@H]3CO4)c12 (some centres unmarked) please.
Found: 651

----------
Read-out record for AsPC-1 cells (K-Ras G12D): IC50
Response body: numeric value in nM, unit text excluded.

Lookup: So what's the measured IC50 for this one? `C#Cc1c(F)ccc2cc(N)cc(-c3nc4c5c(nc(OC[C@@]67CCCN6C[C@H](F)C7)nc5c3F)N3[C@@H](C)[C@H](F)COC[C@H]3N4C)c12`
Found: 21.6

Lookup: Same question for C#Cc1c(F)ccc2cc(N)cc(-c3c(Cl)c4c5c(nc(OCC67CCCN6CC(F)C7)nc5c3F)N3CCCOCC3CO4)c12 (single isomer, unassigned) [Compound 11B] please.
Found: 806

Lookup: Same question for `C#Cc1c(F)ccc2cc(N)cc(-c3nc4c5c(nc(OC[C@@]67CCCN6C[C@H](F)C7)nc5c3F)N3[C@@H](CC)CCOC[C@H]3N4C)c12` please.
Found: 82.5

Lookup: Same question for `C#Cc1c(F)ccc2cc(N)cc(-c3nc4c5c(nc(OC[C@@]67CCCN6C[C@H](F)C7)nc5c3F)N3[C@@H](C)[C@@H](F)COC[C@H]3N4C)c12` please.
Found: 10

Lookup: Same question for `CCc1c(F)ccc2cc(N)cc(-c3nc4c5c(nc(OC[C@@]67CCCN6C[C@H](F)C7)nc5c3F)N3[C@@H](C)CCOC[C@H]3N4C)c12` please.
Found: 173

Lookup: Same question for C#Cc1c(F)ccc2cc(N)cc(-c3nc4c5c(nc(OC[C@@]67CCCN6C[C@H](F)C7)nc5c3F)N3[C@@H](COC)CCOC[C@H]3N4C)c12 [Compound 59A] please.
Found: 61.8

Lookup: Same question for N#Cc1c(N)sc2c(F)ccc(-c3c(F)c4c5c(nc(OC[C@@]67CCCN6C[C@H](F)C7)nc5c3F)N3CCCOC[C@H]3CO4)c12 (single isomer, unassigned) [Compound 163B] please.
Found: 14

Lookup: Same question for `C[C@H]1CCOC[C@H]2N(C)c3nc(-c4cc(O)cc5ccc(F)c(Cl)c45)c(F)c4nc(OC[C@@]56CCCN5C[C@H](F)C6)nc(c34)N12` please.
Found: 52.1

Lookup: Same question for C#Cc1c(F)ccc2cc(N)cc(-c3nc4c5c(nc(OC[C@@]67CCCN6C[C@H](F)C7)nc5c3F)N3CCCOCC3N4C3CC3)c12 (some centres unmarked) please.
Found: 169

Lookup: Same question for C#Cc1c(F)ccc2cc(N)cc(-c3nc4c5c(nc(OC[C@@]67CCCN6C[C@H](F)C7)nc5c3F)N3CC(C)COCC3N4C)c12 (single isomer, unassigned) please.
Found: 180

Lookup: Same question for C#Cc1c(F)ccc2cc(N)cc(-c3nc4c5c(nc(OCC67CCCN6CC(F)C7)nc5c3F)N3C(C)CCOCC3CO4)c12 (centres unmarked) [Compound 38B] please.
Found: 61.3

Lookup: Same question for `CSc1cccc2cc(O)cc(-c3nc4c5c(nc(OC[C@@]67CCCN6C[C@H](F)C7)nc5c3F)N3CCCOC[C@H]3N4C)c12` please.
Found: 110

Lookup: Same question for [2H]C1([2H])OCCCN2c3nc(OC[C@@]45CCCN4C[C@H](F)C5)nc4c(F)c(-c5cc(N)cc6ccc(F)c(C#C)c56)nc(c34)N(C)C21 (some centres unmarked) please.
Found: 76

Lookup: Same question for C#Cc1c(F)ccc2cc(N)cc(-c3nc4c5c(nc(OC[C@@]67CCCN6C[C@H](F)C7)nc5c3F)N3CCCC[C@H](F)[C@H]3N4C)c12 [Compound 40A] please.
Found: 2.54

Lookup: Same question for C#Cc1c(F)ccc2cc(N)cc(-c3nc4c5c(nc(OC[C@@]67CCCN6C[C@H](F)C7)nc5c3F)N3[C@@H](COCC[C@@H]3C)CO4)c12 [Compound 38A] please.
Found: 28.7

Lookup: Same question for C#Cc1c(F)ccc2cc(N)cc(-c3nc4c5c(nc(OC[C@@]67CCCN6C[C@H](F)C7)nc5c3F)N3CC(F)COC[C@@H]3CO4)c12 (some centres unmarked) please.
Found: 620

Lookup: Same question for `C#Cc1c(F)ccc2cc(N)cc(-c3nc4c5c(nc(OC[C@@]67CCCN6C[C@H](F)C7)nc5c3F)N3CCCOC[C@H]3CO4)c12` please.
Found: 102

Lookup: Same question for C#Cc1c(F)ccc2cc(N)cc(-c3nc4c5c(nc(OC[C@@]67CCCN6C[C@H](F)C7)nc5c3F)N3[C@H]5C[C@H]5COC[C@H]3N4C)c12 [Compound 159B] please.
Found: 307

Lookup: Same question for `C=Cc1c(F)ccc2cc(N)cc(-c3nc4c5c(nc(OC[C@@]67CCCN6C[C@H](F)C7)nc5c3F)N3CCCOC[C@H]3CO4)c12` please.
Found: 266

Lookup: Same question for N#Cc1c(N)sc2c(F)ccc(-c3c(Cl)c4c5c(nc(OCC67CCCN6CC(F)C7)nc5c3F)N3CCCOCC3CO4)c12 (single isomer, unassigned) [Compound 66B] please.
Found: 5.91

Lookup: Same question for `C#Cc1c(F)ccc2cc(N)cc(-c3nc4c5c(nc(OC[C@@]67CCCN6C[C@H](F)C7)nc5c3F)N3[C@H](C)CCOC[C@H]3N4C)c12` please.
Found: 1140

Lookup: Same question for C#Cc1c(F)ccc2cc(N)cc(-c3nc4c5c(nc(OC[C@@]67CCCN6C[C@H](F)C7)nc5c3F)N3CCOCCC3N4C)c12 (some centres unmarked) please.
Found: 586

Lookup: Same question for `C#Cc1c(F)ccc2cc(N)cc(-c3nc4c5c(nc(OC[C@@]67CCCN6C[C@H](F)C7)nc5c3F)N3CCC=CC[C@H]3C4=C)c12` please.
Found: 136

----------
# Target Desc: GppNp-KRAS G12V (Homo sapiens, UniProt P01116, G12V)
# Sequence (P01116 1-169 isoform P01116-2 G12V): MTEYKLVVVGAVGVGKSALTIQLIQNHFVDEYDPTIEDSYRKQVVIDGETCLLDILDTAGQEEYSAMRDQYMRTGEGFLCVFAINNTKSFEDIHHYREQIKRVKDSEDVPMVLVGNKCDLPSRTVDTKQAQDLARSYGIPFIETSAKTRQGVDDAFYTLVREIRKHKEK
# Method: GTP-K-Ras and cRAF interaction assay, GppNp-KRAS G12V
# Condition Info: read-out: Biochemical assays, IC50, KRAS G12V GppNp; GppNp-loaded K-Ras G12V, cRAF RBD interaction, HTRF
Quantity Name: IC50 (nM)
Response body: numeric value in nM, unit text excluded.

Lookup: For the record C#Cc1c(F)ccc2cc(N)cc(-c3nc4c5c(nc(OC[C@@]67CCCN6C[C@H](F)C7)nc5c3F)N3[C@@H](COCC[C@@H]3C)CO4)c12 [Compound 38A] , what value of IC50 is listed for GppNp-KRAS G12V (Homo sapiens, UniProt P01116, G12V)?
Found: 75.6

Lookup: Same question for C#Cc1c(F)ccc2cc(N)cc(-c3nc4c5c(nc(OC[C@@]67CCCN6C[C@H](F)C7)nc5c3F)N3CC(C)COCC3N4C)c12 (single isomer, unassigned) please.
Found: 101

Lookup: Same question for C#Cc1c(F)ccc2cc(N)cc(-c3nc4c5c(nc(OCC67CCCN6CC(F)C7)nc5c3F)N3CCCCC(F)C3N4C)c12 (stereo not drawn) [Compound 40B] please.
Found: 705

Lookup: Same question for C#Cc1c(F)ccc2cc(N)cc(-c3nc4c5c(nc(OCC67CCCN6CC(F)C7)nc5c3F)N3C(C)CCOCC3CO4)c12 (stereo not drawn) [Compound 38B] please.
Found: 685

Lookup: Same question for C#Cc1c(F)ccc2cc(N)cc(-c3nc4c5c(nc(OC[C@@]67CCCN6C[C@H](F)C7)nc5c3F)N3CCC=C[C@H](F)[C@H]3N4C)c12 [Compound 108A] please.
Found: 214
